test system: BDF1 mice, s.c. Lewis lung carcinoma, T/C %; experiment: NCI In Vivo Anticancer Drug Screen. Data for tumor model Lewis Lung Carcinoma (subcutaneous) in B6D2F1 (BDF1) mice; details: endpoint: median survival time; dose: 50.0 mg/kg/injection; schedule: Q01DX009 (ip); vehicle: Klucel (hydroxypropylcellulose) (HPC); higher = longer survival
Results filed as inconclusive are left out.
readout-name: T/C

The examples below pair each entry with its known result.
COc1cc(OC)c(OC)cc1/C=C\c1ccnc2ccccc12; 94 % of control
COc1cc2nccc3c4ccccc4n(c1=O)c23; 114 % of control

Ask | Query for BDF1 mice, s.c. Lewis lung carcinoma, T/C %: what T/C does the record show for O=C(O)c1c2c(nc3ccccc13)Cc1ccccc1-2 ?
Reply | 99 % of control
